System: UACC-62 melanoma
Experiment: NCI-60 one-dose screen, 48 h (100 = growth as untreated, 0 = no growth, -100 = all killed)
Details: 10 µM
This is part of a sample that, as a whole, favours compounds with a hit. Of some 83,000 tested, about 20% had one in any assay.
measured.quantity: growth (%)
One number for each entry, in %.

| compound | measured.quantity | number |
| --- | --- | --- |
| Nc1c(C(=O)Nc2cccc(Br)c2)sc2nc3c(cc12)C(O)CCC3 (stereo not given) | growth | 48.9 |
| COc1ccc(/C=C/C(=O)Nc2ccc(-c3nc4ccc(F)cc4s3)cc2)cc1 | growth | 99.8 |
| Nc1ccc2c(c1)C1(CCC2)NC(=O)NC1=O (stereo not given) | growth | 106 |
| O=C1/C(=C/c2ccc([N+](=O)[O-])o2)Oc2ccccc21 | growth | -55 |

Would you kindly look at the next entry?
[in] Checklist item: growth tested on UACC-62 melanoma, entry COc1cc(OC)cc(-c2cncn2-c2ccc(-c3nc4cc(OC)cc(OC)c4s3)cc2)c1 , value?
[out] 58.8
